# protocolSummary: Kinetic study: plasma kinetics of TMC278 after single IM or SC injection of a nanosuspension
# Type: in vivo, male beagle dogs
# measurementContext: male, beagle, dog, plasma, sc, 5 mg/kg, plasma concentration of TMC278, single SC 5 mg/kg TMC278 nanosuspension, mean of 2 dogs, 3 h
measurementKind: concentration at 3 h (ng/mL)
Field format: number, assumed ng/mL, no unit text.

IN: # get_value(readout='concentration at 3 h', item= Cc1cc(C=CC#N)cc(C)c1Nc1ccnc(Nc2ccc(C#N)cc2)n1 )
OUT: 8.19

---

# protocolSummary: Kinetic study: plasma kinetics of TMC278 after single IM or SC injection of a nanosuspension
# Type: in vivo, male beagle dogs
# measurementContext: male, beagle, dog, plasma, sc, 5 mg/kg, plasma concentration of TMC278, single SC 5 mg/kg TMC278 nanosuspension, dog 19129, 1032 h (d43)
measurementKind: concentration at 1032 h (ng/mL)
Field format: number, assumed ng/mL, no unit text.

IN: # get_value(readout='concentration at 1032 h', item= Cc1cc(C=CC#N)cc(C)c1Nc1ccnc(Nc2ccc(C#N)cc2)n1 [TMC278] )
OUT: 5.22

---

# protocolSummary: Kinetic study: plasma kinetics of TMC278 after single IM or SC injection of a nanosuspension
# Format: in vivo, male beagle dogs
# measurementContext: male, beagle, dog, plasma, sc, 5 mg/kg, plasma concentration of TMC278, single SC 5 mg/kg TMC278 nanosuspension, mean of 2 dogs, 0 h (d0, predose)
measurementKind: concentration at 0 h

IN: # get_value(readout='concentration at 0 h', item= Cc1cc(C=CC#N)cc(C)c1Nc1ccnc(Nc2ccc(C#N)cc2)n1 )
OUT: < 1 ng/mL

---

# protocolSummary: Kinetic study: plasma kinetics of TMC278 after single IM or SC injection of a nanosuspension
# Format: in vivo, male beagle dogs
# measurementContext: male, beagle, dog, plasma, intramuscular, 5 mg/kg, plasma concentration of TMC278, single IM 5 mg/kg TMC278 nanosuspension, mean of 2 dogs, 144 h (d6)
measurementKind: concentration at 144 h (ng/mL)
Field format: number, assumed ng/mL, no unit text.

IN: # get_value(readout='concentration at 144 h', item= Cc1cc(C=CC#N)cc(C)c1Nc1ccnc(Nc2ccc(C#N)cc2)n1 [TMC278] )
OUT: 89.1

---

# protocolSummary: Kinetic study: plasma kinetics of TMC278 after single IM or SC injection of a nanosuspension
# Format: in vivo, male beagle dogs
# measurementContext: male, beagle, dog, plasma, sc, 5 mg/kg, plasma concentration of TMC278, single SC 5 mg/kg TMC278 nanosuspension, dog 19129, 192 h (d8)
measurementKind: concentration at 192 h (ng/mL)
Field format: number, assumed ng/mL, no unit text.

IN: # get_value(readout='concentration at 192 h', item= Cc1cc(C=CC#N)cc(C)c1Nc1ccnc(Nc2ccc(C#N)cc2)n1 [TMC278] )
OUT: 17.7

---

# protocolSummary: Kinetic study: plasma kinetics of TMC278 after single IM or SC injection of a nanosuspension;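 further: healthy male beagle dogs injected in both biceps femoris muscles (IM) or both thoracal sides (SC), total volume 0.2 mL/kg, drug measured in plasma from blood samples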
# Type: in vivo, male beagle dogs
# measurementContext: male, beagle, dog, plasma, intramuscular, 5 mg/kg, plasma concentration of TMC278, single IM 5 mg/kg TMC278 nanosuspension, mean of 2 dogs, 48 h (d2)
measurementKind: concentration at 48 h (ng/mL)
Field format: number, assumed ng/mL, no unit text.

IN: # get_value(readout='concentration at 48 h', item= Cc1cc(C=CC#N)cc(C)c1Nc1ccnc(Nc2ccc(C#N)cc2)n1 )
OUT: 146
